System: normal primary NK cells, pool 1 (3 donors) (IL-2 2.5 ng/mL);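 further: normalised to DMSO-only wells as negative and benzethonium chloride as positive control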
Assay: percent inhibition of viability; higher = more inhibition
Conditions: 72 h; 1000 nM
Listed below: percent inhibition of viability values for each entry.
The response must be a number in % with no trailing unit.

Problem: Endpoint output: percent inhibition of viability of O=NN(CCCl)C(=O)NCCCl [Carmustine] (max concentration tested 10000 nM) . Value?
Result: 0.38

Problem: Lookup COc1cc(O)c2c(c1)/C=C/C[C@H](O)[C@H](O)C(=O)/C=C\C[C@H](C)OC2=O [(5Z)-7-Oxozeaenol] (max concentration tested 10000 nM)
Result: 45.6

Problem: Next up: C#Cc1cccc(Nc2ncnc3cc4c(cc23)OCCOCCOCCO4)c1 [Icotinib] (max concentration tested 10000 nM)
Result: -5.75

Problem: Can you check O=C(O)c1ccc(O)c2ncccc12 [IOX-1] (max concentration tested 100000 nM) next?
Result: 0.64

Problem: Also Cn1cc(C2=Nc3cc(NC(=O)C(N)C4CCCCC4)cc4c3C2=CNNC4=O)cn1 (configuration not stated) (max concentration tested 10000 nM) ?
Result: -4.12

Problem: Check CN(C)C(=O)c1cc2cnc(Nc3ccc(N4CCNCC4)cn3)nc2n1C1CCCC1 [NVP-LEE011] (max concentration tested 10000 nM) too.
Result: 6.05

Problem: Thanks! And Cc1[nH]c2ccccc2c1CCNCc1ccc(/C=C/C(=O)NO)cc1 [Panobinostat] (max concentration tested 1000 nM) ?
Result: 97.5
